# Test method notes: Primary qHTS for inhibitors of nuclear receptor binding SET domain protein 2 (NSD2) in an RCH-ACV wild type WT cells (2C) (AID 1645877); also: % is scaled to controls: 0 for no effect and ±100 for the full control effect; nearly all actives have a fitted effect of over 70% in size
# Test conditions: RCH-ACV (leukaemia line) NSD2 WT (2C) viability, CellTiter-Glo, 72 h; series mostly up to 44.9 µM
Inconclusive results are not listed. The source made the active and inactive calls. Calls follow the shape of the dose curve; as a rule, active = well fitted inhibition curve with a large enough effect; inconclusive = small, poorly fitted or top-dose-only effect; inactive = no such curve, though single readings can be large or run the other way.
Result type: activity change, negative = cell killing

Take a look at these entries with their results.
| Molecule | activity change, negative = cell killing |
| --- | --- |
| CC1OC(O[C@H]2CC[C@@]3(C)C(CC[C@]4(C)C3CC=C3C5CC(C)(C)CC[C@]5(C(=O)OC5OC(CO)C(OC6OC(COC7OCC(O)C(O)C7O)C(O)C(O)C6O)C(O)C5O)CC[C@]34C)C2(C)C)C(O)C(O)C1OC1OCC(OC2OCC(O)C(O)C2O)C(O)C1O (stereo partly drawn) | 2.24% [at 9.23 µM] (inactive) |
| C[C@@H]1O[C@@H](O[C@@H]2[C@@H](O)[C@H](O[C@H]3[C@H](O[C@H]4CC[C@@]5(C)C(CC[C@]6(C)C5CC=C5[C@@H]7CC(C)(C)CC[C@]7(C(=O)O[C@@H]7O[C@H](CO)[C@@H](O)[C@H](O)[C@H]7O[C@@H]7O[C@@H](C)[C@H](O[C@@H]8O[C@@H](C)[C@H](O)[C@@H](O)[C@H]8O)[C@@H](O)[C@H]7O)CC[C@]56C)[C@@]4(C)CO)O[C@H](C(=O)O)[C@@H](O)[C@@H]3O)O[C@H](CO)[C@H]2O)[C@H](O)[C@H](O)[C@H]1O (stereo partly drawn) | -3.64% [at 9.23 µM] (inactive) |

Now for the molecule whose activity change, negative = cell killing we want.
I have this molecule here, CC(CCC1(O)OC2CC3C4CCC5CC(O[C@@H]6O[C@H](CO)[C@@H](O)[C@H](O)[C@H]6O[C@@H]6O[C@@H](C)[C@H](O)[C@@H](O)[C@H]6O)C(O)CC5(C)C4CCC3(C)C2C1C)CO[C@@H]1O[C@H](CO)[C@@H](O)[C@H](O)[C@H]1O (stereo partly drawn) , and I need its recorded activity change, negative = cell killing. -13.5% [at 9.23 µM] (inactive)
